Sourced from patent US20210238260

target-or-test-system: Factor X, P00742
Sequence (P00742 whole entry, looked up): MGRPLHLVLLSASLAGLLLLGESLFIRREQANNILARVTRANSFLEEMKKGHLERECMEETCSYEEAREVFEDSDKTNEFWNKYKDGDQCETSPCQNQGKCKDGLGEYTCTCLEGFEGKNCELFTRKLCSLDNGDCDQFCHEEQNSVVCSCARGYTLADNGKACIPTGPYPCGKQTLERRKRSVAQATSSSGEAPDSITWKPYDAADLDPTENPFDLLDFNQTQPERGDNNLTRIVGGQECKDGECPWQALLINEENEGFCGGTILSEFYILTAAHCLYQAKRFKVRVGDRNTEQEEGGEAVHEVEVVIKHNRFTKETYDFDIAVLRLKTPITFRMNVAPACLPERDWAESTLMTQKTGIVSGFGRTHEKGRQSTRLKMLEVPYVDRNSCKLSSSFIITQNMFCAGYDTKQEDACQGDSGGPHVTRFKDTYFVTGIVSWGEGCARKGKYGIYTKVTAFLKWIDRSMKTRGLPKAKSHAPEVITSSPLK
reported-endpoint: KM (µM)
Numbers only, in µM.

FIXa-Y155F/R338E/T343R/E410N (protein) chain 1: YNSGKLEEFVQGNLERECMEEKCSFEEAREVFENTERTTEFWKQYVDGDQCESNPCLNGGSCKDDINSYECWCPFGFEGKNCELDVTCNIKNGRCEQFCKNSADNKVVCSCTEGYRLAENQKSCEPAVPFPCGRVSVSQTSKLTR chain 2: VVGGEDAKPGQFPWQVVLNGKVDAFCGGSIVNEKWIVTAAHCVETGVKITVVAGEHNIEETEHTEQKRNVIRIIPHHNYNAAINKYNHDIALLELDEPLVLNSYVTPICIADKEYTNIFLKFGSGYVSGWGRVFHKGRSALVLQYLRVPLVDRATCLESTKFRIYNNMFCAGFHEGGRDSCQGDSGGPHVTEVEGTSFLTGIISWGEECAMKGKYGIYTKVSRYVNWIKNKTKLT : 0.0224
FIXa-K228N/K247N/N249S (protein) chain 1: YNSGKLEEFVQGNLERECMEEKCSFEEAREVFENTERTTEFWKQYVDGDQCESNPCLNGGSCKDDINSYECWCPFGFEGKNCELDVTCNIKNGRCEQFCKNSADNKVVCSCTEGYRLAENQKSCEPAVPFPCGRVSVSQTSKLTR chain 2: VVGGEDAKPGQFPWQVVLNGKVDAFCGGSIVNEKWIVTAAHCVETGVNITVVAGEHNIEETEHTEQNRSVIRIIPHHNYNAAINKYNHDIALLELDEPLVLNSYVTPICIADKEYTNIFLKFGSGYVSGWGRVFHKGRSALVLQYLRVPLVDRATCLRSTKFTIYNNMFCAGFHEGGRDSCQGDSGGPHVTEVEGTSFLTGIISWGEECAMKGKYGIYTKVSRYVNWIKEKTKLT : 0.0945
FIXa-K293E/R338E/R403E (protein) chain 1: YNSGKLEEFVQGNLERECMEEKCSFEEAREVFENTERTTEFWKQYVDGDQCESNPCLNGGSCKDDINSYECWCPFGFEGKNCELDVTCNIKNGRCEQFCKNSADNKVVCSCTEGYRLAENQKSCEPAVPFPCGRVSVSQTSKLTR chain 2: VVGGEDAKPGQFPWQVVLNGKVDAFCGGSIVNEKWIVTAAHCVETGVKITVVAGEHNIEETEHTEQKRNVIRIIPHHNYNAAINKYNHDIALLELDEPLVLNSYVTPICIADEEYTNIFLKFGSGYVSGWGRVFHKGRSALVLQYLRVPLVDRATCLESTKFTIYNNMFCAGFHEGGRDSCQGDSGGPHVTEVEGTSFLTGIISWGEECAMKGKYGIYTKVSEYVNWIKEKTKLT : 0.05

Then this protein:
Request: Name the recorded KM of the protein listed here: FIXa-K247N/N249S/R318Y/R338E/T343R (protein) chain 1: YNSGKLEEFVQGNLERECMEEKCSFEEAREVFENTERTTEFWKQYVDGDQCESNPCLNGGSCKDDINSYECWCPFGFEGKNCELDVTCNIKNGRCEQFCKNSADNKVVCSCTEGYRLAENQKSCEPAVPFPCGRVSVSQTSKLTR chain 2: VVGGEDAKPGQFPWQVVLNGKVDAFCGGSIVNEKWIVTAAHCVETGVKITVVAGEHNIEETEHTEQNRSVIRIIPHHNYNAAINKYNHDIALLELDEPLVLNSYVTPICIADKEYTNIFLKFGSGYVSGWGRVFHKGYSALVLQYLRVPLVDRATCLESTKFRIYNNMFCAGFHEGGRDSCQGDSGGPHVTEVEGTSFLTGIISWGEECAMKGKYGIYTKVSRYVNWIKEKTKLT
Result: 0.0244
